property-label: melting point

Fill in melting point for record CCOc1cc(OCCCc2cn(-c3ccc(C(F)(F)F)cn3)nc2C)ccc1CCC(=O)O
129 to 130 °C

Fill in melting point for record COC(=O)c1ccc(C#CCCO)cc1
95.5 to 96 °C

Fill in melting point for record Cc1c(O)cc(N2C(=O)c3ccccc3C2=O)cc1C(=O)O
> 250 °C

Fill in melting point for record COC(C)CNc1nccc(-c2ccnc(Nc3cccc(F)c3)c2)n1 (stereo not given)
103 to 105 °C

Fill in melting point for record CS(=O)(=O)C(=C1CN(C(c2ccccc2)c2ccccc2)C1)c1cccc2cccnc12
212 °C

Fill in melting point for record O=C(O)c1cc(-c2ccccc2)cc2c(-c3ccccc3)c([N+](=O)[O-])oc12
207 to 209 °C

Fill in melting point for record CCc1cn(CC)cc(-c2cccc(C(F)(F)F)c2)c1=O
67 to 70 °C

Fill in melting point for record CC(=O)c1ccc(CC(=O)OC(C)(C)C)cc1
50 to 52 °C

Fill in melting point for record COc1ccc(S(=O)(=O)Nc2ncnc(OCCO)c2Cc2ccccc2OC)cc1
161 to 162 °C

Fill in melting point for record CSC(=NC(=O)c1ccccc1)Nc1ccccc1
78 to 94 °C

Fill in melting point for record CC(C)(C)C(O)C(=O)CCn1cncn1 (stereo not given)
80 to 83 °C

Fill in melting point for record COC(=O)C=C(c1ccccc1)c1ccc2nc(N)n(S(=O)(=O)C(C)C)c2c1
160 to 165 °C

Fill in melting point for record CC(=O)Nc1cnc(-c2ccccc2)nc1Cl
179 to 180 °C

Fill in melting point for record NC(C=CP(=O)(O)O)(CO)CCc1ccc(Sc2cccc(OCc3ccccc3)c2)cc1Cl (stereo not given)
245 to 248 °C

Fill in melting point for record CCOC(=O)[C@@H]1[C@H](C)OC(=O)[C@@H]1NC(C)=O
165 to 167 °C

Fill in melting point for record CC(C)(C)OC(=O)N1CCN(c2c(F)cc(NC(=O)OCc3ccccc3)cc2F)CC1
171 to 172 °C

Fill in melting point for record CCOC(=O)C1CSC(c2nsc3ccc(-n4c(=O)cc(C(F)(F)F)n(C)c4=O)cc23)N1 (stereo not given)
97 to 98 °C

Fill in melting point for record CC1(C)C(c2ccc(S(C)(=O)=O)cc2)=C(c2ccccc2)C1(C)O (stereo not given)
114 to 115 °C

Fill in melting point for record NC(=O)c1ccc(F)c2c1OCC(N(CCCc1c[nH]c3ccc(F)cc13)CC1CC1)C2 (stereo not given)
123 °C

Fill in melting point for record O=C1NCC(Cc2ccccc2F)O1 (stereo not given)
113 to 114 °C

====

property-label: melting point

Fill in melting point for record CC(=O)OCCCCn1c(=O)sc2c(=O)[nH]c(N)nc21
189 to 190 °C

Fill in melting point for record COC(=O)c1ccc(N)c(NC(=O)c2ccc(C(C)(C)C)cc2)c1
175 °C

Fill in melting point for record O=C(N[C@H](Cc1ccc(C(F)(F)F)cc1)[C@H](O)c1ccc(F)cc1)c1ccc(C(F)(F)F)cc1 (racemic)
162 to 163 °C

Fill in melting point for record Cc1cc2c(=O)c(-c3nnnn3C)cn(C)c2cc1C
245 to 246 °C

Fill in melting point for record c1ccc2cc(CCNc3ncnc4ccccc34)ccc2c1
172 to 174 °C

Fill in melting point for record COc1ccc(S(=O)(=O)N(CC(N)=O)c2cc(Cl)c(Cl)cc2Cc2ccccc2Cl)cc1OC
163 °C

Fill in melting point for record Nc1ccc(Cl)cc1C(=O)c1ccccc1OCc1ccccc1
110 to 111 °C

Fill in melting point for record CCCNS(=O)(=O)CCCCl
47.5 to 48 °C

Fill in melting point for record CC(C)(C)C1(COc2ccc(Cl)cc2)OS(=O)NC1=O (stereo not drawn)
132 to 134 °C

Fill in melting point for record CC(c1ccc(F)cc1)N1CCC(n2cnc3ccccc3c2=O)CC1 (stereo not drawn)
179 to 180 °C

Fill in melting point for record CCOC(=O)c1cn(C2CC2)c2c(CO)c(N3CCOCC3)c(F)cc2c1=O
212 to 216 °C

Fill in melting point for record CS(=O)(=O)Nc1ccc(F)cc1OCCCN1CCC(OC(c2ccccc2)c2ccccc2)CC1
52 to 56 °C

Fill in melting point for record COc1c(C)cc(P(c2cc(C)c(OC)c(C)c2)c2cc(C)c(OC)c(C)c2)cc1C
176 °C

Fill in melting point for record CC(C)=C1C(=O)N(c2ccc(Cc3ccc(N)cc3)cc2)C(=O)/C1=C(\C)c1cc(-c2ccccc2)sc1C
82 to 94 °C

Fill in melting point for record CCCN(CCCNc1ncc(Cc2ccc3c(c2)OCO3)c(=O)[nH]1)c1ccccn1
86 to 92 °C

Fill in melting point for record Cc1[nH]c2ccccc2c1[C@H]1CC[C@@H](N2CCN(c3cccc4[nH]ccc34)CC2)CC1
279 to 280 °C

Fill in melting point for record CC(C)(NC(=O)CCn1cncc1C=O)c1ccc(Cl)cc1
127 to 129 °C

Fill in melting point for record COc1ccc(C(CC(=O)O)N2C(=O)c3cccc([N+](=O)[O-])c3C2=O)cc1 (stereo not drawn)
178 to 180 °C

Fill in melting point for record CN(CCO)C(=O)Cn1nc(-c2ccccc2O)nc1-c1ccccc1O
101 to 104 °C

Fill in melting point for record Cc1cccc(-c2c(CC(=O)Nc3ccc(F)cc3C(F)(F)F)c(=O)oc3cc4c(cc23)CCC4O)c1 (stereo not drawn)
225 to 227 °C

Fill in melting point for record CCOC(=O)c1c(C(F)(F)F)nc(C(F)(F)Cl)c(C(=O)OC)c1N(CC)CC
31.5 to 33 °C

Fill in melting point for record Oc1cccc(Nc2n[nH]c3ncnc(Nc4cccc(Cl)c4)c23)c1
265 to 266 °C

Fill in melting point for record COc1cc(COc2nn(-c3ccccc3)cc2/C=C/c2nc(N3CCCCC3)sc2C)ccc1OCc1nc(-c2ccc(CC(=O)O)cc2)oc1C
146 to 148 °C
